Test: gradient 5% acetonitrile 3 min, to 50% in 2 min, to 85% in 15 min, held 3 min, 100 µL/min
Details: column: Zorbax Extend-C18 2.1 x 50 mm; eluents: water / acetonitrile, 0.1% formic acid
endpoint: RP-LC retention time (s)

>>> df
                                    compound  obs_value
 0  CCn1c(C(=O)N2CCN(c3ccc(OC)cc3)CC2)cc2sccc21        973
 1  O=C(CSc1cc(-n2ccc(C(=O)NC3CC3)n2)ncn1)Nc1ccc(Cl)cc1F        867
 2  O=C1N(C2CCN(Cc3ccccn3)CC2)C(c2ccncc2)C12CCCCC2 (stereo not given)        556
 3        COc1ncc(C(=O)NCc2ccc(N(C)C)cc2)cn1        564
 4  CCOc1ccccc1C(=O)N1CCN=C1SCc1ccc([N+](=O)[O-])cc1        898
 5  Cc1nc2cccnc2n1C1CCN(C(=O)Nc2ccc(Br)cc2F)CC1        671
 6  Cc1ccc(CNC(=O)C2CCCN(c3cc(=O)n(C)c(=O)n3C)C2)cc1 (stereo not given)        701
 7  O=C(CN1CCN(Cc2ccc(F)cc2)C1=O)NC1CCN(Cc2ccccc2)CC1        618
 8  Cc1cc(C)cc(-n2ccn(Cc3nc(-c4ccc(C)cc4C)no3)c(=O)c2=O)c1       1020
 9  O=C(NCCC1=CCCCC1)C1CCN(Cc2cc3ccccc3n2Cc2ccccc2Cl)CC1        924
10  O=C(COc1ccc(-c2nnc3n2CCCC3)cc1)NCc1ccc2c(c1)OCO2        662
11  CCC(CN1CCOCC1)Nc1nc(-c2ccc(OC)cc2)nc2ccccc12 (stereo not given)        570
12  CCC(C)NC(=O)C1CC(=O)N(c2ccc3c(c2)CCN3C(C)=O)C1 (stereo not given)        630
13             c1ccc(-c2csc(Nc3ncccn3)n2)cc1        906
14  COCc1ncc(C)n1C1CCN(C(=O)c2noc(C)c2Cc2c(C)noc2C)C1 (stereo not given)        617
15  Cc1cc(N2CCCC2)nc(N2CCN(C(=O)C3CCCC3)CC2)n1        670
16  Cc1cccc(NC(=O)N2CCc3c(c(-c4nc(C5CC5)no4)nn3C)C2)c1        854
17  c1ccc(-c2nc(C3CCN(Cc4cccs4)C3)no2)nc1 (stereo not given)        583
18  O=C(c1cn(-c2cc(N3CCCCC3)ncn2)cn1)N1CCN(c2ncccn2)CC1        785
19  COCCN1C(=O)CCc2cc(NS(=O)(=O)c3ccc(OC)c(Cl)c3)ccc21        794

====

Assay: gradient 5% acetonitrile 3 min, to 50% in 2 min, to 85% in 15 min, held 3 min, 100 µL/min
Conditions: column: Zorbax Extend-C18 2.1 x 50 mm; eluents: water / acetonitrile, 0.1% formic acid
endpoint: RP-LC retention time (s)

>>> print(df.to_string())
                                   compound  obs_value
0  Cc1oc(-c2[nH]ncc2C(=O)N(C)C)cc1S(=O)(=O)Nc1ccc(F)cc1Cl        696
1  Cc1ccc(-c2nc(-c3ccc4c(c3)oc(=O)n4C(C)C)no2)cc1C       1130
2  COc1ccc(CCC(=O)Nc2nc(-c3cccc(Br)c3)cs2)cc1       1150

[a] O=C(Cn1cccc(-c2nc(-c3ccc(Cl)cc3)no2)c1=O)N1CCCc2ccccc21
[b] c1ccc(-c2nc(-c3ccc4c(c3)nnn4CCN3CCCCC3)no2)nc1
Please let me know which one, a or b , has a lower measured RP-LC retention time value. Let me know the label of the one you choose.
b

meta.source: the METLIN SMRT retention time set (Domingo-Almenara et al. 2019)
